Target: RAC-beta serine/threonine-protein kinase (Homo sapiens) (UniProt P31751);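 further: reported figure is the mean percent inhibition of AKT2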
Conditions: at 0.1 µM
Experimental Endpoint: inhibition
Note: a bare number is incomplete; add the unit.

Given Smiles	Experimental Endpoint	Result
Nc1nc(-c2cccc(Cl)c2)c(-c2ccc3ncccc3n2)s1	inhibition	1.97%

Hi! Can you tell me inhibition for each of these molecules?
1. CC(C)(CO)CNC(=O)c1ccc2c(c1)/C(=N/Nc1ccc(S(N)(=O)=O)cc1)C(=O)N2
2. N#Cc1c(NC(=O)CN2CCOCC2)sc2c1CCCC2
3. O=C(O[C@H]1CN[C@H](C#Cc2cc3ncnc(Nc4ccc(Cc5ccccc5)cc4)c3s2)C1)N1CCOCC1

Response:
1: -1.39%; 2: 1.56%; 3: 0.98%

###

Test system: Epidermal growth factor receptor (Homo sapiens), P00533 [L858R,T790M]
Sequence (P00533 whole entry T790M/L858R, looked up): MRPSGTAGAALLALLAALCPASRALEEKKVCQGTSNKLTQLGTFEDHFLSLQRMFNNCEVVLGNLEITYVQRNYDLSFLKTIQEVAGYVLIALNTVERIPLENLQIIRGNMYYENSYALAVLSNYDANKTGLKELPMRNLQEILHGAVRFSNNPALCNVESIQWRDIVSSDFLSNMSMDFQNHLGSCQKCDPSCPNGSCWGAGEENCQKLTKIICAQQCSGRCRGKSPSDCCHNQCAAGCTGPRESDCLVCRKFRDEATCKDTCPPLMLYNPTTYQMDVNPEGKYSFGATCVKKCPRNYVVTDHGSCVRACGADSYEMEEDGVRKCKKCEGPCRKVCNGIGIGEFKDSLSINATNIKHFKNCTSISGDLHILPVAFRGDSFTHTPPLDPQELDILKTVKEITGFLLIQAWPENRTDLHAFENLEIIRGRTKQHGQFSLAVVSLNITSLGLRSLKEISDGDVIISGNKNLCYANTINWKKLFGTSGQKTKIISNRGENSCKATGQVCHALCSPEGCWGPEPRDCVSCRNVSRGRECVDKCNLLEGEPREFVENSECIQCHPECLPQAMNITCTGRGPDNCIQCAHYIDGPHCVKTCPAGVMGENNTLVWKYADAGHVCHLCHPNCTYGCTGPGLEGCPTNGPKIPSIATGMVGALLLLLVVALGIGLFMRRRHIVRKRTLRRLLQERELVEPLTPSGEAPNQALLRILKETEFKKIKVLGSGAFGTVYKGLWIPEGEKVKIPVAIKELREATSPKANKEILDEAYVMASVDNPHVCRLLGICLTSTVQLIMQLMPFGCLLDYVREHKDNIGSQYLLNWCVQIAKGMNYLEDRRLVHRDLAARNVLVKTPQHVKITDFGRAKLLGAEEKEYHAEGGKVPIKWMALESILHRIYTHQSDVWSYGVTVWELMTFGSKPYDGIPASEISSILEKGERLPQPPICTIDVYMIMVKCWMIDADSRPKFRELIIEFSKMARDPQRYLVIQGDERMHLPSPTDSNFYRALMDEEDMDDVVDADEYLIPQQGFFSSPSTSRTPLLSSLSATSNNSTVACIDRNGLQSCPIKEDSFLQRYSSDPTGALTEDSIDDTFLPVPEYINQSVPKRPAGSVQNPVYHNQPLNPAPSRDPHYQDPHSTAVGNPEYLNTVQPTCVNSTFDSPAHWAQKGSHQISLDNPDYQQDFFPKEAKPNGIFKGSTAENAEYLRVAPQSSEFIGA
Settings: at 1 µM
Experimental Endpoint: inhibition (%)
Answers are plain numbers, in %.

Here is how some compounds turned out for inhibition.
Given Smiles	Experimental Endpoint	Measured Number
CS(=O)(=O)CCNCc1coc(-c2ccc3ncnc(Nc4ccc(OCc5ccccc5)cc4)c3c2)c1	inhibition	4.59
COc1cc(N2CCN(C(C)C)CC2)ccc1Nc1nc(Nc2ccc(F)cc2C(N)=O)c2cc[nH]c2n1	inhibition	90.4
CCN1CCC(CC(=O)Nc2n[nH]c3nnc(-c4cccc(F)c4F)cc23)CC1	inhibition	1.26
Cc1cccc(Nc2ncc(-c3ccccc3)o2)c1	inhibition	1.2
CC(C)COC(=O)c1ccc2c(c1)/C(=C/Nc1ccc(S(N)(=O)=O)cc1)C(=O)N2	inhibition	3.71

Hi! Can you tell me inhibition for each of these compounds?
1. CCN(CC)S(=O)(=O)c1ccc(OC)c(Nc2ncc(-c3ccccc3)o2)c1
2. CCNC(=O)O[C@H]1CN[C@H](C#Cc2cc3ncnc(Nc4ccc(OCc5cccc(F)c5)c(Cl)c4)c3s2)C1
3. Clc1ccc(-c2nn3ncccc3c2-c2ccnc(Nc3ccccc3)n2)cc1

Response:
1: -0.47; 2: 4.48; 3: 53.3

###

Record form. Attribute: inhibition. Fill in for each entry.
Test system: Platelet-derived growth factor receptor alpha (Homo sapiens), P16234 [V561D]
Sequence (P16234 whole entry V561D): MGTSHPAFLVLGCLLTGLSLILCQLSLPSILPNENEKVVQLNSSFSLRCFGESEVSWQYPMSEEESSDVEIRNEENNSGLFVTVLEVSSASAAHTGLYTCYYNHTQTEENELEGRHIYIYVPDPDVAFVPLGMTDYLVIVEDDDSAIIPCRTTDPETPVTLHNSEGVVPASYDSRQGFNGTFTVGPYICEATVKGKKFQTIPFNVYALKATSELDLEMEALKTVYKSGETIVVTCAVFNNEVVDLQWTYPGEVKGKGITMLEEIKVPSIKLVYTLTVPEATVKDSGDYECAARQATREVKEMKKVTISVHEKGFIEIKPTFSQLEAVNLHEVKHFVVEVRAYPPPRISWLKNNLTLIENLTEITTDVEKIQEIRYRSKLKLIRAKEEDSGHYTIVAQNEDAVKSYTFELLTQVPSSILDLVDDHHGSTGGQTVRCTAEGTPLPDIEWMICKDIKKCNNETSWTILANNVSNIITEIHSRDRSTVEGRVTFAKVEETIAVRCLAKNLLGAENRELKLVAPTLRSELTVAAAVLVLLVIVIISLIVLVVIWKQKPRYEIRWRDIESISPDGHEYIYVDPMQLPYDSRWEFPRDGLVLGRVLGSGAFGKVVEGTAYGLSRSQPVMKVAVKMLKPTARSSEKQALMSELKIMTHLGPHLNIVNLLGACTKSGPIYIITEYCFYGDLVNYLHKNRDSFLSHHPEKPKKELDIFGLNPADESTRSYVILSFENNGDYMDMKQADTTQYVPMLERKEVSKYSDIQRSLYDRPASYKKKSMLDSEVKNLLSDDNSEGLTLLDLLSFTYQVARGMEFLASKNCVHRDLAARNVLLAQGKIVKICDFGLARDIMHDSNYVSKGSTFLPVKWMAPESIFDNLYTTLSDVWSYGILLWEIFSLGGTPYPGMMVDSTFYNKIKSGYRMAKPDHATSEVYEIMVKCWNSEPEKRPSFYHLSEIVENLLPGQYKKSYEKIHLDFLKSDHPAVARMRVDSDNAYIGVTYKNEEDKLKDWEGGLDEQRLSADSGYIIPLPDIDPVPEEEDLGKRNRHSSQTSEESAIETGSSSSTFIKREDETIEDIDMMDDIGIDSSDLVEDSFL
Conditions: at 0.1 µM
Give bare numbers, in %.

Here is how some compounds turned out for inhibition.
Given Smiles	Measured Number
COc1cccc(-n2ncc3c(N/N=C/c4ccc(F)cc4)ncnc32)c1	8.4
Clc1ccc(-c2nn3ncccc3c2-c2ccnc(Nc3ccccc3)n2)cc1	12.4
COC(=O)Nc1nc2ccc(Oc3ccc(NC(=O)Nc4cccc(Cl)c4)cc3)cc2[nH]1	74.6

Hi! Can you tell me inhibition for each of these compounds?
1. CCc1nn2ncccc2c1-c1ccnc(NC2CC2)n1
2. Cc1ccc(O)cc1Nc1ccnc2cc(-c3ccccn3)ccc12
3. CCn1c(-c2nonc2N)nc2c(C#CC(C)(C)O)ncc(OC3CCNCC3)c21

Response:
1: 3.69; 2: 70.4; 3: 2.59

###

Biological target: Angiopoietin-1 receptor (Homo sapiens) (UniProt Q02763)
Sequence (Q02763 whole entry): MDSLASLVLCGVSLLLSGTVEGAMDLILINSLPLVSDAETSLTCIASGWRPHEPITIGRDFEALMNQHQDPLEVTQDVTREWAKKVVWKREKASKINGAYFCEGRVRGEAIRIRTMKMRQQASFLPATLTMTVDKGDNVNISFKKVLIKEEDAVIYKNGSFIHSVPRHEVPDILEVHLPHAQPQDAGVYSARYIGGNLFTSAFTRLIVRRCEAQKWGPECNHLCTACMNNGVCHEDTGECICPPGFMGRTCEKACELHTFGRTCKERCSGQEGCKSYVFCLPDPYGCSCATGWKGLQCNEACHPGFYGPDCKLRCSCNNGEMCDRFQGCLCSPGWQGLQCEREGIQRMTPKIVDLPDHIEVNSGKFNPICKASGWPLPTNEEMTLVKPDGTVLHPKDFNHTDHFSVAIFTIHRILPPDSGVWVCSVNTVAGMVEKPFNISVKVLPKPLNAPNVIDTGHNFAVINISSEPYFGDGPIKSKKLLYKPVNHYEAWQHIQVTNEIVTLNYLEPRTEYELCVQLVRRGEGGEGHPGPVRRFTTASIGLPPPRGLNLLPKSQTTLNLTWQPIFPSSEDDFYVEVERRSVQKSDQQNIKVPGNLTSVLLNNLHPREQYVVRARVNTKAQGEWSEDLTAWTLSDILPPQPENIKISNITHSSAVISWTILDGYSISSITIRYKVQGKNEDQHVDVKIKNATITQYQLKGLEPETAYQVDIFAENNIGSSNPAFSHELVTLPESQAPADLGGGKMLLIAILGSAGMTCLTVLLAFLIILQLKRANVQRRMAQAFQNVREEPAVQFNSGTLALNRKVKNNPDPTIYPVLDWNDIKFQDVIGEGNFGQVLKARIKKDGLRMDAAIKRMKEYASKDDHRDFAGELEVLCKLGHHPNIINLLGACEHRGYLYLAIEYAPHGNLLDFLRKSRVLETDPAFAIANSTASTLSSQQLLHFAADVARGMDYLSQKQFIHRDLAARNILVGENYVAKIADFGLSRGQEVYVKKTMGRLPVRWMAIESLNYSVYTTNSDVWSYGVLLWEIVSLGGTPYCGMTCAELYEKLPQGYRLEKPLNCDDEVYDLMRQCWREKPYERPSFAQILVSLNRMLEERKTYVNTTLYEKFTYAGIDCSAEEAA
Conditions: at 0.1 µM
Description: GSK_PKIS: TIE2 mean inhibition at 0.1 uM [Nanosyn]
Record form. Attribute: inhibition. Fill in for each entry.
Give bare numbers, in %.

Given Smiles	Measurement Target	Experimental Endpoint	Scale Unit	Measured Number
COc1ccc2c(-c3ccnc(Nc4cccc(OC(F)(F)F)c4)n3)cnn2n1	Angiopoietin-1 receptor (Homo sapiens) (UniProt Q02763)	inhibition	%	1.4
CC(=O)NCc1cccc(C#Cc2cncnc2Nc2ccc(OCc3cccc(F)c3)c(Cl)c2)c1	Angiopoietin-1 receptor (Homo sapiens) (UniProt Q02763)	inhibition	%	0.95

Attention now turns to another entry.
Prompt: Please give the measured inhibition for this compound: CC(C)(CO)CNC(=O)c1ccc2c(c1)/C(=N/Nc1ccc(S(N)(=O)=O)cc1)C(=O)N2
Response: -0.74

###

Target: Sphingosine kinase 1 (Homo sapiens) (UniProt Q9NYA1);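 further: mean SPHK1 inhibition value reported from the GSK PKIS kinase panel screen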
Sequence (Q9NYA1 whole entry): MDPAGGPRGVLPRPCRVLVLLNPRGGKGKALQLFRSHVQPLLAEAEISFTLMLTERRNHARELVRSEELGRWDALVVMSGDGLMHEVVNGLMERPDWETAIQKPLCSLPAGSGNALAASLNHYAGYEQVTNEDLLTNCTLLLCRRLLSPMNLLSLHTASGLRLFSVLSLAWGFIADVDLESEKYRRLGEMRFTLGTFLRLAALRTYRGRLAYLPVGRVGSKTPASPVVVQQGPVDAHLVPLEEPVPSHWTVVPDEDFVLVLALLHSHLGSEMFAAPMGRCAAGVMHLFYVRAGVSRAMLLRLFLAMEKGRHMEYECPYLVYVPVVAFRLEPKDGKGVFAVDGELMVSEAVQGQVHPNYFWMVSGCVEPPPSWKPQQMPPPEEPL
Details: at 1 µM
Record form. Attribute: inhibition. Fill in for each entry.
Numbers only, in %.

Hi! Can you tell me inhibition for each of these compounds?
1. N#Cc1c(NC(=O)c2ccc(F)cc2)sc2c1CCCC2
2. CN1CCC(n2cnc(-c3ccc(F)cc3)c2-c2ccnc(Nc3ccccc3)n2)CC1
3. CC1=C(C(=O)Nc2cc(Cl)c3[nH]ncc3c2)C(c2ccc(C(F)(F)F)cc2)CC(=O)N1 (stereo unspecified)
4. Cc1cccc(Nc2ncc(-c3ccccc3)o2)c1
5. CNC(=O)c1cc(-c2ccc(F)cc2)cc(-c2ccc(S(=O)(=O)N3CCCC3)cc2)c1N
6. CCn1c(-c2nonc2N)nc2ccccc21
7. COC(=O)Nc1nc2ccc(Oc3ccc(NC(=O)Nc4cccc(Cl)c4)cc3)cc2[nH]1
8. COC(=O)Nc1nc2ccc(S(=O)(=O)c3ccc(NC(=O)Nc4cc(C(F)(F)F)ccc4F)cc3)cc2[nH]1

Response:
1. -1.09
2. -6.88
3. -1.96
4. 3.75
5. -1.82
6. 1.74
7. -0.57
8. -2.79

Hi! Can you tell me inhibition for each of these compounds?
1. CS(=O)(=O)CCNCc1ccc(-c2ccc3ncnc(Nc4ccc(OCc5ccccc5)c(C(F)(F)F)c4)c3c2)o1
2. COc1ccc(CNC(=O)c2ccc(-c3cc(-c4nnc(C)o4)ccc3C)cc2)cc1

Response:
1. 3.88
2. -0.2

Prompt: Please give the measured inhibition for this compound: COc1cccc(-c2c[nH]c3c(N/N=C/c4ccncc4)ncnc23)c1
Response: 0.2

###

Record form. Attribute: inhibition. Fill in for each entry.
Biological target: Tyrosine-protein kinase SYK (Homo sapiens) (UniProt P43405)
Conditions: at 1 µM
Description: GSK_PKIS: SYK mean inhibition at 1 uM [Nanosyn]

Given Smiles	Result
Cc1ccc(O)cc1Nc1ccnc2cc(-c3ccccn3)ccc12	1.9%
CCN(CC)S(=O)(=O)c1ccc(OC)c(Nc2ncc(-c3ccccc3)o2)c1	-0.04%

Hi! Can you tell me inhibition for each of these molecules?
1. COc1ccc(-c2nn3ncccc3c2-c2ccnc(Nc3ccc4c(c3)OCCO4)n2)cc1
2. CN(C)CCOc1ccc(-c2nc(-c3ccncc3)c(-c3ccc4c(c3)CC/C4=N\O)[nH]2)cc1
3. CNC(=O)c1cccc(C#Cc2cncnc2Nc2ccc(OCc3cccc(F)c3)c(Cl)c2)c1
4. CNC(=O)c1cc(-c2ccc(F)cc2)cc(-c2ccc(S(=O)(=O)N3CCCC3)cc2)c1N
5. Nc1nc(-c2ccc(F)cc2)c(-c2ccc3ncccc3n2)s1
6. c1ccc(COc2ccc(Nc3ncnc4ccc(-c5ccco5)cc34)cc2)cc1
7. COC(=O)c1sc(-n2cnc3cc(OC)c(OC)cc32)cc1OCc1ccccc1C(F)(F)F

Response:
1. -0.41%
2. -0.9%
3. 0.47%
4. 0.73%
5. 0.4%
6. -0.46%
7. 1.09%

###

Record form. Attribute: inhibition. Fill in for each entry.
Biological target: Dual specificity protein kinase CLK2 (Homo sapiens)
Conditions: at 0.1 µM
Description: GSK_PKIS: CLK2 mean inhibition at 0.1 uM [Nanosyn]
One number for each entry, in %.

Here is how some compounds turned out for inhibition.
Given Smiles	Measurement Target	Scale Unit	inhibition
c1cc(-c2cnn3nc(N4CCOCC4)ccc23)nc(NC2CC2)n1	Dual specificity protein kinase CLK2 (Homo sapiens)	%	9.32
COc1ccc(-c2nn3ncccc3c2-c2ccnc(Nc3ccc4c(c3)OCCO4)n2)cc1	Dual specificity protein kinase CLK2 (Homo sapiens)	%	0.37
CC(C)(CO)CNC(=O)c1ccc2c(c1)/C(=N/Nc1ccc(S(N)(=O)=O)cc1)C(=O)N2	Dual specificity protein kinase CLK2 (Homo sapiens)	%	11.8

Attention now turns to another entry.
Prompt: Please give the measured inhibition for this compound: Nc1nc(-c2ccc(F)cc2)c(-c2ccc3ncccc3n2)s1
Response: 2.98

###

Record form. Attribute: inhibition. Fill in for each entry.
Tested on: Epidermal growth factor receptor (Homo sapiens), P00533 [L858R]
Sequence (P00533 whole entry L858R): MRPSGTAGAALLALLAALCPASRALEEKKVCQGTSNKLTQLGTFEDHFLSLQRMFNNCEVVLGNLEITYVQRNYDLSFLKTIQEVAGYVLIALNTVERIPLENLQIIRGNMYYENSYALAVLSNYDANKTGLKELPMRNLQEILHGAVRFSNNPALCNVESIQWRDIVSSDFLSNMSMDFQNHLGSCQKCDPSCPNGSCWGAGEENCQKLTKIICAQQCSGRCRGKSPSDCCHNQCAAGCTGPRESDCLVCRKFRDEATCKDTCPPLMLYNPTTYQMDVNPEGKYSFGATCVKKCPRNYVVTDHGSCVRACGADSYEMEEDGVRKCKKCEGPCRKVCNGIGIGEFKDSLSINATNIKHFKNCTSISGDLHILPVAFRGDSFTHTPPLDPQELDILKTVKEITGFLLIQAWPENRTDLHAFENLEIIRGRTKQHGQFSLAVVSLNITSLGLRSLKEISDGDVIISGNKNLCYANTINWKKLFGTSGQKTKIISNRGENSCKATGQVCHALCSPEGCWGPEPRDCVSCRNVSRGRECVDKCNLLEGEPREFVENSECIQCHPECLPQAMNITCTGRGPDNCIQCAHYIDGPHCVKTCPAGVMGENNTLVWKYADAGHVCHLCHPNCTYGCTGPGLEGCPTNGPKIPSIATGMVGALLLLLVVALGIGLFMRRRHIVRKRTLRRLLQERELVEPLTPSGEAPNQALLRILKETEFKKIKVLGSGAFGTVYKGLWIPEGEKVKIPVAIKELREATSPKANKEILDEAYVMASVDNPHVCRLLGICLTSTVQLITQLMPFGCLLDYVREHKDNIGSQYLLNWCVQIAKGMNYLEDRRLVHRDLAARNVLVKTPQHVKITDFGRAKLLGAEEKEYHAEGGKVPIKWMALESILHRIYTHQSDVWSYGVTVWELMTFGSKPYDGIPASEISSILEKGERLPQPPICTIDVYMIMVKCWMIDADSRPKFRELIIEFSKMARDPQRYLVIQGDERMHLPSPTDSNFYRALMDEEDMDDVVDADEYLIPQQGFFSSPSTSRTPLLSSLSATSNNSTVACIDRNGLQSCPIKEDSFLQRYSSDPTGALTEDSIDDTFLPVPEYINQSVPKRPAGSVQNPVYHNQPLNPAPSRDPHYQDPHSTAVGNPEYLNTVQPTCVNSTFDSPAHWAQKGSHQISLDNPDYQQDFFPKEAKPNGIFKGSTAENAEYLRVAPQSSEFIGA
Settings: at 0.1 µM
One number for each entry, in %.

Here is how some compounds turned out for inhibition.
Compound	Measurement Target	inhibition [%]
COc1cc(/C=N/Nc2ncnc3[nH]ncc23)ccc1O	Epidermal growth factor receptor (Homo sapiens), P00533 [L858R]	4.32
c1ccc(COc2ccc(Nc3ncnc4ccc(-c5ccco5)cc34)cc2)cc1	Epidermal growth factor receptor (Homo sapiens), P00533 [L858R]	9.89

Hi! Can you tell me inhibition for each of these compounds?
1. N#Cc1c(NC(=O)c2ccc(F)cc2)sc2c1CCCC2
2. Clc1ccc(-c2nn3ncccc3c2-c2ccnc(Nc3ccccc3)n2)cc1
3. O=C(O[C@H]1CN[C@H](C#Cc2cc3ncnc(Nc4ccc(Cc5ccccc5)cc4)c3s2)C1)N1CCOCC1
4. NS(=O)(=O)c1ccc(N/N=C2\C(=O)Nc3ccc4ncccc4c32)cc1
5. CN(C)CCOc1ccc(-c2nc(-c3ccncc3)c(-c3ccc4c(c3)CC/C4=N\O)[nH]2)cc1
6. Cc1ccc2c(-c3ccnc(Nc4ccccc4)n3)c(-c3ccc(F)cc3)nn2n1

Response:
0.66
43.5
1.68
1.35
5
85.8

###

Molecular target: Serine/threonine-protein kinase Sgk3 (Homo sapiens);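 further: each value is a mean of replicate inhibition readings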
Settings: at 1 µM
Experimental Endpoint: inhibition (%)
One number for each entry, in %.

Molecule	Scale Unit	inhibition
Cc1ccc(O)cc1Nc1ccnc2cc(-c3ccccn3)ccc12	%	1.94
COc1cc2ncn(-c3cc(OCc4ccccc4C(F)(F)F)c(C(=O)N(C)C)s3)c2cc1OC	%	-0.88
CCc1nn2ncccc2c1-c1ccnc(NC2CC2)n1	%	3.01
CC1=C(C(=O)Nc2cc(Cl)c3[nH]ncc3c2)C(c2ccc(C(F)(F)F)cc2)CC(=O)N1 (configuration not stated)	%	34.4
Nc1ncc(-c2cccc(S(N)(=O)=O)c2)c2scc(-c3ccc(F)c(Cl)c3)c12	%	0.56
O=C(Nc1n[nH]c2cc(-c3ccc(F)cc3)ccc12)C1CC1	%	8.97

Attention now turns to another entry.
Prompt: Value wanted: inhibition (Serine/threonine-protein kinase Sgk3 (Homo sapiens)) of entry COc1cccc(-c2c[nH]c3c(N/N=C/c4ccncc4)ncnc23)c1
Response: 1.84
